- METHOD DESCRIPTION: Inhibition of gamma secretase in Tg2576 mouse mixed brain cultures assessed as reduction in Abeta42 production
REPORTED PROPERTY: pIC50
Scale explanation: pIC50 corresponds to minus log10 of a concentration expressed in moles per litre.

Endpoint output: pIC50 of CCc1cc(Nc2nc(-c3ccc(-n4cnc(C)c4)c(F)c3)cs2)c(C)cc1C . Value? 7.54

----------
- METHOD DESCRIPTION: Inhibition of gamma secretase assessed as reduction in Abeta42 production
pIC50: −log10 of the molar value.
Where pIC50 equals or exceeds 7, the correct label is Satisfied; where it does not, the label is Not satisfied.

Identify whether the reported pIC50 of the following compound is 7 or greater: COc1cc(C)c(Nc2nc(-c3ccc(-n4cnc(C)c4)c(OC)n3)n[nH]2)cc1C(C)C Satisfied

Identify whether the reported pIC50 of the following compound is 7 or greater: COc1cc(Nc2nc(Cc3ccc(Cl)cc3)c(CO)s2)ccc1-n1cnc(C)c1 Not satisfied

Identify whether the reported pIC50 of the following compound is 7 or greater: CC(C)CCN(Cc1cc(-c2ccc(C(F)(F)F)cc2)cc(C(CC(C)C)C(=O)O)c1)c1ccc(C(F)(F)F)cc1 (centres undefined) Not satisfied

Identify whether the reported pIC50 of the following compound is 7 or greater: COc1cc(/C=C/c2nc3n(n2)CCC[C@@H]3c2ccc(C(F)(F)F)cc2)ccc1-n1cnc(C)c1 Satisfied

Identify whether the reported pIC50 of the following compound is 7 or greater: CCC[C@H](C(=O)O)c1cc(OCc2ccccc2)cc(-c2ccc(C(F)(F)F)cc2)c1 Not satisfied

Identify whether the reported pIC50 of the following compound is 7 or greater: COc1cc(-c2cn(C3CCc4c(F)cccc4N(CC(F)(F)F)C3=O)nn2)ccc1Nc1cccnc1 (centres undefined) Not satisfied

Identify whether the reported pIC50 of the following compound is 7 or greater: CC(C)CC(C(=O)O)c1cc(-c2ccc(C(F)(F)F)cc2)cc(N2CCC(C(F)(F)F)CC2)c1 (centres undefined) Not satisfied

----------
- METHOD DESCRIPTION: Drug level in mouse plasma after 6 hrs
- Type: ADME, cell-free
REPORTED PROPERTY: concentration at 6 h (µM)
Report the figure in µM without appending any unit label.

Endpoint output: concentration at 6 h of CC(C)CC[C@H](c1ccc(C(F)(F)F)nc1)N1CC[C@@H](CC(=O)O)C[C@H]1c1ccc(C(F)(F)F)cc1 . Value? 32.9

----------
Please respond with reported Kp for every item in the list.
- METHOD DESCRIPTION: Ratio of drug level in brain to plasma in rat
- Format: ADME, cell-free
- EXPERIMENTAL PARAMETERS: read-out: BPR
Simply state the number, no unit and no words.

Endpoint output: Kp of CC(C)CC(C(=O)O)c1ccc(OCC2CC2)c(-c2ccc(C(F)(F)F)cc2)c1 (configuration not stated) . Value? 0.08

Endpoint output: Kp of CC(C)CC(C(=O)O)c1ccc(-c2ccc(C(F)(F)F)cc2)c(OCC2CC2)c1 (configuration not stated) . Value? 0.11

----------
- METHOD DESCRIPTION: Inhibition of gamma secretase assessed as reduction in Abeta42 production
Mark each entry criterion met if its IC50 sits below 200 nM, and criterion not met for all others.

Please indicate whether the reported IC50 of CC(C)CC(C(=O)O)c1ccc(OCC2CC2)c(-c2ccc(C(F)(F)F)cc2)c1 (centres undefined) is strictly below 200 nM. criterion not met

Please indicate whether the reported IC50 of CSc1ccc(/C=C2/C(C)=C(CC(=O)O)c3cc(F)ccc32)cc1 [SULINDAC SULFIDE] is strictly below 200 nM. criterion not met

Please indicate whether the reported IC50 of COc1cc(Nc2ncc3c(n2)C(c2ccccc2)CCC3)ccc1-c1cnn(C)c1 (centres undefined) is strictly below 200 nM. criterion not met

Please indicate whether the reported IC50 of COc1cc(Nc2cc(C#N)cn([C@@H](C)c3ccc(F)cc3)c2=O)ccc1-n1cnc(C)c1 is strictly below 200 nM. criterion met

Please indicate whether the reported IC50 of CCCC1CCCCN1c1cc(-c2ccc(C(F)(F)F)cc2)cc(C(CC(C)C)C(=O)O)c1 (centres undefined) is strictly below 200 nM. criterion not met

Please indicate whether the reported IC50 of CC(C)CC[C@H](c1ccc(C(F)(F)F)cc1)N1CC[C@@H](CC(=O)O)C(F)(F)[C@H]1c1ccc(C(F)(F)F)cc1 is strictly below 200 nM. criterion not met

Please indicate whether the reported IC50 of Cc1cn(-c2ccc(Nc3ncc4c(n3)C(c3ccccc3)CCC4)cc2F)cn1 (centres undefined) is strictly below 200 nM. criterion met

Please indicate whether the reported IC50 of C[Si](C)(C)CC[C@H](CCC(F)(F)F)N1CC[C@@H](CC(=O)O)C(F)(F)[C@H]1c1ccc(C(F)(F)F)cc1 is strictly below 200 nM. criterion not met

Please indicate whether the reported IC50 of COc1cc(C)c(Cc2nc(-c3ccc(-n4cnc(C)c4)c(OC)n3)n[nH]2)cc1C(C)C is strictly below 200 nM. criterion met

----------
- METHOD DESCRIPTION: Drug level in mouse brain after 6 hrs
- Type: ADME, tissue-based
- EXPERIMENTAL PARAMETERS: read-out: Drug uptake
REPORTED PROPERTY: concentration at 6 h (µM)
Report the figure in µM without appending any unit label.

Endpoint output: concentration at 6 h of CC(C)CC[C@H](c1ccc(C(F)(F)F)nc1)N1CC[C@@H](CC(=O)O)C[C@H]1c1ccc(C(F)(F)F)cc1 . Value? 54.7

----------
- Test system: Plasma
- METHOD DESCRIPTION: Plasma concentration in Tg2576 mouse at 50 mg/kg/day, po
- Format: ADME, organism-based
- Parameters: route oral
- EXPERIMENTAL PARAMETERS: in vivo
REPORTED PROPERTY: concentration (µM)
Report the figure in µM without appending any unit label.

Endpoint output: concentration of CCc1cc(Nc2nc(-c3ccc(-n4cnc(C)c4)c(F)c3)cs2)c(C)cc1C . Value? 4

----------
- METHOD DESCRIPTION: Drug level in brain of Tg2576 mouse expressing human APP Swedish mutant at 60 mg/kg/day after 17 weeks
- Assay type: ADME, organism-based
- EXPERIMENTAL PARAMETERS: read-out: Drug uptake
REPORTED PROPERTY: concentration at 2856 h (µM)
Report the figure in µM without appending any unit label.

Endpoint output: concentration at 2856 h of O=C(O)C1(c2ccc(-c3ccc(Cl)c(Cl)c3)c(F)c2)CC1 . Value? 6.4

----------
- METHOD DESCRIPTION: Inhibition of gamma secretase assessed as reduction in Abeta42 production
Mark each entry 1 if its IC50 sits below 0.04 µM, and 0 for all others.

Please indicate whether the reported IC50 of O=C(O)C1(c2ccc(-c3ccc(Cl)c(Cl)c3)c(F)c2)CC1 is strictly below 0.04 µM. 0

Please indicate whether the reported IC50 of COc1cc(Nc2cc(C(F)F)cn([C@@H](C)c3ccc(F)cc3)c2=O)ccc1-n1cnc(C)c1 is strictly below 0.04 µM. 0

Please indicate whether the reported IC50 of COCCN(Cc1cccc2ccccc12)C(=O)/C=C/c1ccc(-n2cnc(C)c2)c(OC)c1 is strictly below 0.04 µM. 0

Please indicate whether the reported IC50 of COc1cc(Nc2cc(C#N)cn(Cc3ccc(F)cc3)c2=O)ccc1-n1cnc(C)c1 is strictly below 0.04 µM. 0

Please indicate whether the reported IC50 of COc1cc(/C=C/c2nc3n(n2)CCC[C@@H]3c2cc(F)c(F)c(F)c2)ccc1-n1cnc(C)c1 is strictly below 0.04 µM. 1

Please indicate whether the reported IC50 of COc1ccccc1NC(=O)Nc1ccc(-c2ccnc(C)c2)c(OC)c1 is strictly below 0.04 µM. 0

Please indicate whether the reported IC50 of COc1cc(C(O)c2c(OC)cnn([C@@H](C)c3ccc(F)cc3)c2=O)ccc1-n1cnc(C)c1 (stereo not given in full) is strictly below 0.04 µM. 0

Please indicate whether the reported IC50 of CC(C)CC[C@H](c1ncc(C(F)(F)F)cn1)N1CC[C@@H](CC(=O)O)C[C@H]1c1ccc(C(F)(F)F)cc1 is strictly below 0.04 µM. 0

Please indicate whether the reported IC50 of COc1cc(/C=C2\CC[C@H]3CCC[C@@H](c4cc(F)c(F)c(F)c4)N3C2=O)ccc1-n1cnc(C)c1 is strictly below 0.04 µM. 1

----------
Please respond with reported inhibition for every item in the list.
- METHOD DESCRIPTION: Inhibition of gamma secretase assessed as reduction in Abeta42 production at 1 uM
Report the figure in % without appending any unit label.

Endpoint output: inhibition of CC(C)CC(C(=O)O)c1cc(-c2ccc(C(F)(F)F)cc2)cc(C2CCC(C(F)(F)F)NC2)c1 (configuration not stated) . Value? 8

Endpoint output: inhibition of CC(C)CC(C(=O)O)c1cc(C#Cc2cc(F)cc(F)c2)cc(-c2ccc(C(F)(F)F)cc2)c1 (configuration not stated) . Value? 53

Endpoint output: inhibition of CC(C)CC(C(=O)O)c1cc(-c2ccc(C(F)(F)F)cc2)cc(N2CCNCC2)c1 (configuration not stated) . Value? 5

Endpoint output: inhibition of CC(C)CC(C(=O)O)c1cc(NC(=O)c2cc(F)cc(F)c2)cc(-c2ccc(C(F)(F)F)cc2)c1 (configuration not stated) . Value? 34

Endpoint output: inhibition of CC(C)CC(C(=O)O)c1cc(C(=O)c2cc(F)cc(F)c2)cc(-c2ccc(C(F)(F)F)cc2)c1 (configuration not stated) . Value? 50

Endpoint output: inhibition of CC(C)CC(C(=O)O)c1cc(-c2ccc(C(F)(F)F)cc2)cc(N2CCN(c3ccc(C(F)(F)F)cc3)CC2)c1 (configuration not stated) . Value? 63

Endpoint output: inhibition of CC(C)CC(C(=O)O)c1cc(-c2ccc(C(F)(F)F)cc2)cc(C2CCCC(C)N2)c1 (configuration not stated) . Value? 0
